measurement description: Ratio of drug level in brain to plasma in CD-1 mouse at 15 mg/kg, po at 4 hrs
Type: ADME, organism-based
Parameters: dose 15 mg/kg, route oral
test settings: read-out: BPR
attribute measured: Kp at 4 h
Respond with the number and no other words.

Reported Kp at 4 h of CC(C)(O)c1cc2nc(-c3cnc(N)nc3)nc(N3CCOCC3)c2s1 : 0.2

###

bioavailability overview
measurement description: Oral bioavailability in CD-1 mouse
Assay type: ADME, organism-based
test settings: in vivo

COC(C)(C)c1cc2nc(-c3cnc(N)nc3)nc(N3CCOCC3)c2s1 = 25%
CC1(C)COC1c1cc2nc(-c3cnc(N)nc3)nc(N3CCOCC3)c2s1 (centres undefined) = 46%
CC1(C)OCCc2c1sc1c(N3CCOCC3)nc(-c3cnc(N)nc3)nc21 = 93%

Okay, now this molecule:
Note to self: bioavailability recorded for COC1(c2sc3c(N4CCOCC4)nc(-c4cnc(N)nc4)nc3c2C)COC1 was 75%

###

system: Serine/threonine-protein kinase mTOR (Homo sapiens)
measurement description: Inhibition of human recombinant mTOR (1360 to 2549 amino acids) assessed as reduction in phosphorylation of (GFP)-4-EBP1 after 30 mins by FRET assay
test settings: read-out: Ki(app)
Ki reference
Response body: numeric value in nM, unit text excluded.

CC(C)(O)c1cc2nc(-c3cnc(N)nc3)nc(N3CCOCC3)c2s1 = 30
CC1(C)COC1c1cc2nc(-c3cnc(N)nc3)nc(N3CCOCC3)c2s1 (stereo not drawn) = 21

// switching to the query molecule
Entry CC1(C)OCCc2c1sc1c(N3CCOCC3)nc(-c3cnc(N)nc3)nc21 , Ki reported as 13

###

measurement description: Clearance in po dosed CD-1 mouse
Assay type: ADME, organism-based
test settings: in vivo
attribute measured: CL/F (mL/min/kg)
Numbers only; they are read as mL/min/kg.

Here's what some known entries look like.
COC1(c2sc3c(N4CCOCC4)nc(-c4cnc(N)nc4)nc3c2C)COC1 = 32
CC1(C)OCCc2c1sc1c(N3CCOCC3)nc(-c3cnc(N)nc3)nc21 = 16
CC1(C)COC1c1cc2nc(-c3cnc(N)nc3)nc(N3CCOCC3)c2s1 (centres undefined) = 52

Switching to the query record.
So for COC(C)(C)c1cc2nc(-c3cnc(N)nc3)nc(N3CCOCC3)c2s1 , the logged CL/F turned out to be 20

###

measurement description: Drug level in CD-1 mouse brain at 50 mg/kg, po administered as single dose measured after 6 hrs post dose
Type: ADME, organism-based
Set-up: dose 50 mg/kg, route oral
test settings: read-out: Drug uptake
attribute measured: concentration at 6 h
Answer format reminder: number followed by unit.

Sample COC1(c2sc3c(N4CCOCC4)nc(-c4cnc(N)nc4)nc3c2C)COC1 ; concentration at 6 h observed: 2310 nM

###

measurement description: Ratio of drug level in brain to plasma in CD-1 mouse at 10 mg/kg, po measured at 0.5 hrs
Type: ADME, organism-based
Parameters: dose 10 mg/kg, route oral
test settings: read-out: BPR
attribute measured: Kp at 0.5 h

get_value(item= CS(=O)(=O)N1CCN(Cc2cc3nc(-c4cccc5[nH]ncc45)nc(N4CCOCC4)c3s2)CC1 [PICTILISIB] , readout=Kp at 0.5 h) returns < 0.05

###

Measured pEC50 values are reported for all entries that follow.
measurement description: Cytotoxicity against human U87MG cells incubated for 4 days
Assay type: functional, cell-based, U-87MG ATCC
test settings: U-87 MG, 96 h
Answer as the number alone; pEC50 is minus log10 of concentration in mol/L.

COC(C)(C)c1cc2nc(-c3cnc(N)nc3)nc(N3CCOCC3)c2s1 = 6.54

As a next step, examine the compound that follows.
# compound COC1(c2sc3c(N4CCOCC4)nc(-c4cnc(N)nc4)nc3c2C)COC1 ; its pEC50 = 6.60

###

measurement description: Drug level in CD-1 mouse brain at 50 mg/kg, po administered as single dose measured after 1 hr post dose
Type: ADME, organism-based
Parameters: dose 50 mg/kg, route oral
test settings: read-out: Drug uptake
attribute measured: concentration at 1 h (µM)
Reply with just the number (in µM).

Form field concentration at 1 h, entry COC1(c2sc3c(N4CCOCC4)nc(-c4cnc(N)nc4)nc3c2C)COC1 : 3.64

###

measurement description: Ratio of drug level in brain to plasma in CD-1 mouse at 50 mg/kg, po at 1 hr
Assay type: ADME, organism-based
Design: dose 50 mg/kg, route oral
test settings: read-out: BPR
attribute measured: Kp at 1 h
Write the value as a bare number.

Quick note, Kp at 1 h for COC1(c2sc3c(N4CCOCC4)nc(-c4cnc(N)nc4)nc3c2C)COC1 landed at 1

###

measurement description: Ratio of drug level in brain to plasma in CD-1 mouse at 20 mg/kg, po measured at 1 hr
Type: ADME, organism-based
Design: dose 20 mg/kg, route oral
test settings: read-out: BPR
attribute measured: Kp at 1 h

Reported Kp at 1 h ( Cc1c(CN2CCN(C(=O)[C@H](C)O)CC2)sc2c(N3CCOCC3)nc(-c3cnc(N)nc3)nc12 ) = < 0.1

###

measurement description: Ratio of drug level in brain to plasma in CD-1 mouse at 15 mg/kg, po at 6 hrs
Type: ADME, organism-based
Design: dose 15 mg/kg, route oral
test settings: read-out: BPR
attribute measured: Kp at 6 h
Enter a number only.

According to the records, this compound CC1(C)OCCc2c1sc1c(N3CCOCC3)nc(-c3cnc(N)nc3)nc21 displays Kp at 6 h of 1.6

###

measurement description: Drug uptake in NCr nude mouse brain xenografted with PTEN deficient human U87MG cells at 40 mg/kg after 1 hr
Type: ADME, organism-based, U-87MG ATCC
Design: dose 40 mg/kg
test settings: read-out: Drug uptake
attribute measured: concentration at 1 h

According to the records, this compound COC1(c2sc3c(N4CCOCC4)nc(-c4cnc(N)nc4)nc3c2C)COC1 displays concentration at 1 h of 2200 nM

###

measurement description: Toxicity in PTEN deficient human U87MG cells xenografted in NCr nude mouse at dosed orally once daily for 24 days
Format: organism-based, U-87MG ATCC
test settings: in vivo, po
This listing pairs compounds with measured MTD at 576 h.
Report the value in mg/kg with no unit label.

COC(C)(C)c1cc2nc(-c3cnc(N)nc3)nc(N3CCOCC3)c2s1 = 14

Next, consider the following compound.
The reported MTD at 576 h of the compound COC1(c2sc3c(N4CCOCC4)nc(-c4cnc(N)nc4)nc3c2C)COC1 was 40

###

measurement description: Protein binding in CD-1 mouse plasma at 25 mg/kg, po administered as single dose
Format: ADME, organism-based
Set-up: dose 25 mg/kg, route oral
test settings: read-out: PPB (converted)
attribute measured: fraction unbound
Just the number, please.

Form: compound = CC1(C)OCCc2c1sc1c(N3CCOCC3)nc(-c3cnc(N)nc3)nc21 ; fraction unbound = 0.006

###

// reported EC50 per item
Tested on: PC-3
measurement description: Antiproliferative activity against human PC3 cells incubated for 3 days
Assay type: functional, cell-based
test settings: PC-3, 72 h
Express your answer in nM, writing the number without its unit.

c1cc(-c2nc(N3CCOCC3)c3sccc3n2)c2cn[nH]c2c1 = 3600

# ---- query molecule ----
For this molecule ( Cc1csc2c(N3CCOCC3)nc(-c3cnc(N)nc3)nc12 ), measured EC50 is 364

###

Tested on: mouse Bcrp1
measurement description: in vitro
test settings: dog
Decision: efflux ratio at 2 h, 5 µM compared against 5; not below it gives Fulfilled, below it gives Not fulfilled.

CC(=O)N1CC(c2cc3nc(-c4cnc(N)nc4)nc(N4CCOCC4)c3s2)C1 = Fulfilled

Query: Please indicate if the recorded efflux ratio at 2 h, 5 µM for CC1(C)OCCc2c1sc1c(N3CCOCC3)nc(-c3cnc(N)nc3)nc21 meets or exceeds 5.
Result: Not fulfilled

Query: Reported efflux ratio at 2 h, 5 µM at or above 5? Cc1c(C(C)(C)O)sc2c(N3CCOCC3)nc(-c3cnc(N)nc3)nc12
Result: Fulfilled

Query: Is it the case that CC(F)(F)c1cc2nc(-c3cnc(N)nc3)nc(N3CCOCC3)c2s1 has efflux ratio at 2 h, 5 µM reaching or exceeding 5?
Result: Not fulfilled

Query: Given COCCOC1(c2cc3nc(-c4cnc(N)nc4)nc(N4CCOCC4)c3s2)COC1 , state whether its efflux ratio at 2 h, 5 µM is at least 5.
Result: Not fulfilled

Query: Confirm if efflux ratio at 2 h, 5 µM reported for the molecule c1cc(-c2nc(N3CCOCC3)c3sccc3n2)c2cn[nH]c2c1 is 5 or above.
Result: Not fulfilled

Query: Test whether the molecule Cc1csc2c(N3CCOCC3)nc(-c3cnc(N)nc3)nc12 records efflux ratio at 2 h, 5 µM of 5 or higher.
Result: Not fulfilled

Query: Evaluate Cc1c(C2(O)COC2)sc2c(N3CCOCC3)nc(-c3cnc(N)nc3)nc12 : efflux ratio at 2 h, 5 µM at minimum 5?
Result: Fulfilled

Query: Form field: efflux ratio at 2 h, 5 µM at least 5? Entry: Nc1ncc(-c2nc(N3CCOCC3)c3sc(C4CNC4)cc3n2)cn1
Result: Fulfilled

Query: Threshold query (efflux ratio at 2 h, 5 µM >= 5) on CC1(C)COC1c1cc2nc(-c3cnc(N)nc3)nc(N3CCOCC3)c2s1 (stereo not given)
Result: Not fulfilled
